- SYSTEM_UNDER_TEST: Stp1 (UniProt B3LFK1)
- Sequence: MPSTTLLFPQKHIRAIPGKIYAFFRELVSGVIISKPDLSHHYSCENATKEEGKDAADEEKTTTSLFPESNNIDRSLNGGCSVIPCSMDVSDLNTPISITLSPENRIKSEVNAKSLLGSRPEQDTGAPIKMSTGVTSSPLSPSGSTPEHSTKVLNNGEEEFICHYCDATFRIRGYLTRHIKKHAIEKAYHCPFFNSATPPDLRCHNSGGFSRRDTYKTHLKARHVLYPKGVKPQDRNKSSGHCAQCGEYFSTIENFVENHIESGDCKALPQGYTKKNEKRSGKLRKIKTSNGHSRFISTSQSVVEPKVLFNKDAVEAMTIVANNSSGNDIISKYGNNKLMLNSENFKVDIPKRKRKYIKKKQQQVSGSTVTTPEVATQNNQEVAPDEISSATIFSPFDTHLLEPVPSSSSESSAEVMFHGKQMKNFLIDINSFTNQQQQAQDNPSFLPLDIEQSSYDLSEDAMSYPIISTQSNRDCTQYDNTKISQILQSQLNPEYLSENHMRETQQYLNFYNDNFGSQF
- TEST_METHOD_NOTES: PBM E-score (8-mer binding enrichment) (E-score (-0.5 to 0.5)); higher = stronger / more preferred TF binding
- EXPERIMENTAL_PARAMETERS: protein concentration: 200 nM; construct: GST-full length
Whole data set: some 33,000 sequences, median “E-score (-0.5 to 0.5)” near -0.016, cut for the highest 2% near 0.32. For the sample, the highest values were picked, then their nearest neighbours and some sequences at random.

RESIDUE_CODES | PBM E-score
AAGTTATC | -0.0807
CGGCGCCC | 0.38
CCCACGGA | 0.00496
GCGCGCCA | 0.268
TGGTTACA | -0.0623
GGGCGCCC | 0.255
CAGCTAAC | -0.171
CTGCGCCA | 0.106
GCCACGGC | 0.469
CTGCGCCC | -0.113
CGGCGCCA | 0.463

---

- SYSTEM_UNDER_TEST: Stp1 (UniProt B3LFK1)
- Sequence: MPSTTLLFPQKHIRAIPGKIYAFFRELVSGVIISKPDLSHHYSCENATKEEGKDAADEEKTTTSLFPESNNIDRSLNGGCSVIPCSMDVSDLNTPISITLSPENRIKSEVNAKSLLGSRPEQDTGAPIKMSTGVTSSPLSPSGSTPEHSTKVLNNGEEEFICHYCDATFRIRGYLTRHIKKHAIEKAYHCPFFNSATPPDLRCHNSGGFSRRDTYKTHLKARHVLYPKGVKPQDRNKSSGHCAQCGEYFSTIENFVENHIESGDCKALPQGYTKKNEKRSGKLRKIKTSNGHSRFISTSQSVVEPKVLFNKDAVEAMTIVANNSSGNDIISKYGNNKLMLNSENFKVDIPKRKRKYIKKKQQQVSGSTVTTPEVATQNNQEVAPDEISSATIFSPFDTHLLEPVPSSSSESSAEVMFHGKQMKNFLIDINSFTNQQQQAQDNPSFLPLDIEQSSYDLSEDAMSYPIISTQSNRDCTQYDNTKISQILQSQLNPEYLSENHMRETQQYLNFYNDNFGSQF
- TEST_METHOD_NOTES: PBM E-score (8-mer binding enrichment) (E-score (-0.5 to 0.5)); higher = stronger / more preferred TF binding
- EXPERIMENTAL_PARAMETERS: protein concentration: 200 nM; construct: GST-full length
Whole data set: some 33,000 sequences, median “E-score (-0.5 to 0.5)” near -0.016, cut for the highest 2% near 0.32. The sample as a whole holds a higher share of the highest values than the screen did.
EXPERIMENTAL_ENDPOINT: PBM E-score

RESIDUE_CODES | REPORTED_RESULT
GGCACAAA | 0.374
CAAAGCCC | -0.0858
AAAAGCCT | -0.0406
AAAAGCCC | -0.145
TACTGTGA | -0.14
GGCACGAA | 0.389
GGCACGAC | 0.208
AACAGCCG | 0.255
TAGGTGGA | -0.21
AGCACTAA | 0.132
TGCACAAA | 0.0921
AAAAGCCG | 0.326
TGCACTAA | 0.109
CAAAGCCA | 0.0366
CAAAGCCG | 0.316
CAAAAGCC | 0.121
GGCAAGAA | 0.22
AGCACGAA | 0.0412
CATAGTCA | -0.195
AAAAAGCC | 0.34
CACAGCCC | -0.172
CCTCTCCC | -0.253
